target: SIRT1 (Homo sapiens, UniProt Q96EB6); assay: TAMRA based mass spectrometry assay of SIRT1 activity; assay type: biochemical; details: percent maximum fold activation of SIRT1; TAMRA peptide substrate; read-out: TAMRA % Fold Act
Sequence (Q96EB6 whole entry): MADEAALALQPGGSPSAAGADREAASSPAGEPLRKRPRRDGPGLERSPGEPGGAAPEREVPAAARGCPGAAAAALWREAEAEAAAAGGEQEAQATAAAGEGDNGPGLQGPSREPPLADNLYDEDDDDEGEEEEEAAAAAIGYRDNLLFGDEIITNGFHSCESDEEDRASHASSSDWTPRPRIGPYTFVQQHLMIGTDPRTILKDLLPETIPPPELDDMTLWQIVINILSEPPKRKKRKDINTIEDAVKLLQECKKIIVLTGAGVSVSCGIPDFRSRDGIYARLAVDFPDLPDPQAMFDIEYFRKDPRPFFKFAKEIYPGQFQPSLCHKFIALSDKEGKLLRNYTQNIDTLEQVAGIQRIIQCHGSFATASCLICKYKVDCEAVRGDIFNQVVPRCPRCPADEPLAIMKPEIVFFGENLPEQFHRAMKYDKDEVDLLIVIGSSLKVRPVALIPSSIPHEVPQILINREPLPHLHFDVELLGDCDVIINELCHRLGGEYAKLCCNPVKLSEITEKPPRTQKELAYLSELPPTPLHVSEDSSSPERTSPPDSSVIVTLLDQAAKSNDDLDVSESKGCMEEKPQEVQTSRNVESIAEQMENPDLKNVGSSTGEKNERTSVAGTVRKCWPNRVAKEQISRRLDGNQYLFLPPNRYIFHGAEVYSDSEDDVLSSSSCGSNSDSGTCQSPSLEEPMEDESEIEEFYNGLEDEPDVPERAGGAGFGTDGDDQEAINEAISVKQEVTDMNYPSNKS
measurement.type: Emax

Please review the following examples before continuing.
# molecule, Emax
data = [
    ("O=C(Nc1cnccn1)c1cnc2ccc(-c3ccccc3F)nn12 [Compound 139]", "< 350%"),
    ("O=C(Nc1cccnn1)c1cnc2ccc(-c3ccccc3C(F)(F)F)nn12 [Compound 79]", "≥ 350%"),
    ("Cn1cc(-c2ccc3ncc(C(=O)Nc4cccc(N5CCOCC5)n4)n3n2)cn1 [Compound 56]", "< 350%"),
    ("COc1cc(C)nc(NC(=O)c2cnc3ccc(-c4ccccc4C(F)(F)F)nn23)n1 [Compound 174]", "≥ 350%"),
    ("O=C(Nc1cc(N2CCOCC2)ccn1)c1cnc2ccc(-c3ccccc3C(F)(F)F)nn12 [Compound 176]", "< 350%"),
    ("O=C(Nc1ccccn1)c1cnc2ccc(-c3ccccc3C(F)(F)F)nn12 [Compound 16]", "≥ 350%"),
    ("O=C(Nc1ccccn1)c1cnc2ccc(-c3c(F)cccc3Cl)nn12 [Compound 162]", "< 350%"),
]

Here is the next item to consider.
For record O=C(Nc1cccc(N2CCOCC2)n1)c1cnc2ccc(-c3ccc(F)c(F)c3F)nn12 [Compound 126] the listed Emax is < 350%
